# pIC50 annotations
- TESTED_SYSTEM: LCK (Homo sapiens, UniProt P06239)
- Sequence (P06239 whole entry): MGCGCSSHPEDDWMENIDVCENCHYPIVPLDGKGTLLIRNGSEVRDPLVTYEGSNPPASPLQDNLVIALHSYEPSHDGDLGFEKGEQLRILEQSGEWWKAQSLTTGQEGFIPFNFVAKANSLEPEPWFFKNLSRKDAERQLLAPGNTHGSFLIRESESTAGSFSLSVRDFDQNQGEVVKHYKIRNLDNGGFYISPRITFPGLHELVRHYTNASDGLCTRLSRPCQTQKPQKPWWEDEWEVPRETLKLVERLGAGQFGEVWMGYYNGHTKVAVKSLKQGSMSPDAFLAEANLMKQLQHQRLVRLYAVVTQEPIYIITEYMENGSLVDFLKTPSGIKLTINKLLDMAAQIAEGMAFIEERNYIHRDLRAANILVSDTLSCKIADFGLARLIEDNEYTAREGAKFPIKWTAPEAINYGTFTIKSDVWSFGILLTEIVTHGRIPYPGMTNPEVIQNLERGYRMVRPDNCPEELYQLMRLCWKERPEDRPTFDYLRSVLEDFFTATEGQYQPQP
- MEASUREMENT_PROTOCOL: Inhibition of a panel of kinases, in vitro HotSpot kinase assay: LCK
- Type: biochemical
- MEASUREMENT_CONTEXT: Table 10, Formula A-I; 1 μM ATP; read-out: LCK (IC50)
pIC50: −log10 of the molar value. Counter-ions that a name gives are not always drawn.

Please review the entries below; each comes with its answer.
MOLECULE	pIC50
Cc1cc(Nc2nc(N3CCC[C@@H](NC(=O)c4ccc(N)cc4)C3)cnc2C(N)=O)sn1	6.00 to 7.00
CN(C(=O)N[C@@H]1CCCN(c2cnc(C(N)=O)c(Nc3ccc(C4CCN(C5CCCC5)CC4)cc3)n2)C1)c1ccccc1	6.00 to 7.00
NC(=O)c1ncc(N2CCC[C@@H](NC(=O)Nc3ccccc3)C2)nc1Nc1ccc(C2CCN(C3CCCC3)CC2)cc1 [Example A-2, hydrochloride]	> 7.00

IN: Item `Cc1cc(Nc2nc(N3CCC[C@@H](NC(=O)c4ccc(N(C)C)nc4)C3)cnc2C(N)=O)sn1` has what recorded pIC50?
OUT: 5.00 to 6.00

IN: Item `Cc1cc(Nc2nc(N3CCC[C@@H](NC(=O)Nc4cccnc4)C3)cnc2C(N)=O)sn1` has what recorded pIC50?
OUT: 6.00 to 7.00

IN: Item `Cc1cc(Nc2cc(N3CCC[C@@H](NC(=O)c4ccc(N(C)C)cc4)C3)cnc2C(N)=O)sn1` has what recorded pIC50?
OUT: < 5.00

IN: Item `Cc1cccc(NC(=O)N[C@@H]2CCCN(c3cnc(C(N)=O)c(Nc4cc(C)ns4)n3)C2)c1` has what recorded pIC50?
OUT: 6.00 to 7.00

IN: Item `Cc1cc(Nc2nc(N3CCC[C@@H](NC(=O)c4ccccc4F)C3)cnc2C(N)=O)sn1` has what recorded pIC50?
OUT: 6.00 to 7.00

* * *

- TESTED_SYSTEM: SRC (Homo sapiens, UniProt P12931)
- Sequence (P12931 whole entry): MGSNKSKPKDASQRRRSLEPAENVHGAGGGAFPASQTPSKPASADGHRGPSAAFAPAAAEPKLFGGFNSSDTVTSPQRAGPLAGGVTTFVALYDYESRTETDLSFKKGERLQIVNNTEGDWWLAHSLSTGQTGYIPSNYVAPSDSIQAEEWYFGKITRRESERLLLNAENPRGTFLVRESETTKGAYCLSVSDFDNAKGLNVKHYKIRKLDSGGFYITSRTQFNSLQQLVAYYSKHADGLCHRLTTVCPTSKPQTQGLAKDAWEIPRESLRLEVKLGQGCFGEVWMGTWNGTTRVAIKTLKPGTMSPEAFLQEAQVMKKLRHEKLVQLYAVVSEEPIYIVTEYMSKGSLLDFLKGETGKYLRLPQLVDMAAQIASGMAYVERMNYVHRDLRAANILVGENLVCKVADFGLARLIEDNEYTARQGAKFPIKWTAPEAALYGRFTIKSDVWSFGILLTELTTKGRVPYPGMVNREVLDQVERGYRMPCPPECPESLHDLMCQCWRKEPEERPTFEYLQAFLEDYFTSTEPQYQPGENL
- MEASUREMENT_PROTOCOL: Inhibition of a panel of kinases, in vitro HotSpot kinase assay: SRC
- Assay type: biochemical
- MEASUREMENT_CONTEXT: D-compounds panel data; 1 μM ATP
READOUT_KIND: IC50

SMI	RESULT_VALUE
C[C@@H]1[C@H](NC(=O)c2ccc(C3CC3)cc2)CCCN1c1cnc(C(N)=O)c(Nc2cc(C3CCN(C4CCCC4)CC3)ns2)n1	10 to 100 nM
C[C@@H]1[C@H](NC(=O)c2ccc(C3CC3)cc2)CCCN1c1cnc(C(N)=O)c(Nc2ccc3c(c2)CCOC3)n1	1000 to 10000 nM
C[C@@H]1[C@H](NC(=O)c2ccc(-c3ncccn3)cc2)CCCN1c1cnc(C(N)=O)c(Nc2cnn(C)c2)n1	100 to 1000 nM
C[C@@H]1[C@H](NC(=O)c2ccc(C(C)(C)O)nc2)CCCN1c1cnc(C(N)=O)c(Nc2cnn(C)c2)n1	10 to 100 nM
C[C@@H]1[C@H](NC(=O)c2ccc(C(C)(C)O)cc2F)CCCN1c1nnc(C(N)=O)c(Nc2cnn(C)c2)n1	10 to 100 nM
C[C@@H]1[C@H](NC(=O)c2ccc(C3COC3)cc2)CCCN1c1cnc(C(N)=O)c(Nc2cnn(C)c2)n1	10 to 100 nM

IN: Item `Cc1cc(Nc2nc(N3C[C@H](NC(=O)N(C)C)CC[C@@H]3C)cnc2C(N)=O)sn1` has what recorded IC50?
OUT: 1000 to 10000 nM

IN: Item `C[C@@H]1[C@H](NC(=O)c2ccc(C3CC3)cc2)CCCN1c1cnc(C(N)=O)c(Nc2ccc(N3CCN(C)CC3)c(C(F)(F)F)c2)n1` has what recorded IC50?
OUT: 100 to 1000 nM

IN: Item `C[C@@H]1[C@H](NC(=O)c2ccc(C3CC3)cc2F)CCCN1c1cnc(C(N)=O)c(Nc2cc(CN3CCOCC3)ns2)n1` has what recorded IC50?
OUT: 10 to 100 nM

IN: Item `C[C@@H]1[C@H](NC(=O)N(C)C)CCCN1c1cnc(C(N)=O)c(Nc2ccc(CN3CCN(C)CC3)cc2)c1` has what recorded IC50?
OUT: 1000 to 10000 nM
